The reported measurements were obtained from PubChem BioAssay AID2060910.

Test system: 242566-281-R-J2-PDC complex spheroid viability;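 further: spheroids exposed to compound for 7 days before readout; 100% = DMSO vehicle control wells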
assay explanation: Anticancer human tumor 242566-281-R-J2-PDC patient-derived pancreatic carcinoma cell line growth inhibition [RAS]
condition label: second compound 0.0316 µM; first compound 0.00949 µM; hits give low values
reported endpoint: viability, T/C (%)
Express the result in % but write the number alone.

Consider the following illustrative entries.
>  <compound>
CC1(C)CCC(Nc2ncc(C(F)(F)F)c(-c3c[nH]c4c(P(C)(C)=O)c(C#N)ccc34)n2)CN1 (centres undefined) + C#Cc1c(F)ccc2cc(O)cc(-c3ncc4c(N5CC6CCC(C5)N6)nc(OCC56CCCN5CC(F)C6)nc4c3F)c12

>  <system tested>
242566-281-R-J2-PDC complex spheroid viability;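 further: spheroids exposed to compound for 7 days before readout; 100% = DMSO vehicle control wells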

>  <quantity unit>
%

>  <viability, T/C>
85.6

$$$$
>  <compound>
CCc1c2c(nc3ccc(O)cc13)-c1cc3c(c(=O)n1C2)COC(=O)[C@]3(O)CC + C=CC(=O)N1CCN(c2nc(OCC3CCCN3C)nc3c(F)c(-c4nc(N)cc(C)c4C(F)(F)F)c(Cl)cc23)C(C)C1

>  <system tested>
242566-281-R-J2-PDC complex spheroid viability;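 further: spheroids exposed to compound for 7 days before readout; 100% = DMSO vehicle control wells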

>  <quantity unit>
%

>  <viability, T/C>
83.3

$$$$
>  <compound>
CCc1c2c(nc3ccc(O)cc13)-c1cc3c(c(=O)n1C2)COC(=O)[C@]3(O)CC + C#Cc1c(F)ccc2cc(O)cc(-c3ncc4c(N5CC6CCC(C5)N6)nc(OCC56CCCN5CC(F)C6)nc4c3F)c12

>  <system tested>
242566-281-R-J2-PDC complex spheroid viability;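 further: spheroids exposed to compound for 7 days before readout; 100% = DMSO vehicle control wells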

>  <quantity unit>
%

>  <viability, T/C>
76.1

$$$$

Attention now shifts to the item below.
Challenge: For CC1(C)CCC(Nc2ncc(C(F)(F)F)c(-c3c[nH]c4c(P(C)(C)=O)c(C#N)ccc34)n2)CN1 (centres undefined) + C=CC(=O)N1CCN(c2nc(OCC3CCCN3C)nc3c(F)c(-c4nc(N)cc(C)c4C(F)(F)F)c(Cl)cc23)C(C)C1 , what is its reported viability, T/C?
Response given: 133
